Kindly state relative viability for each of the entries shown.
system: A549; test: relative viability (normalised to negative control = 1, bortezomib = 0) (fraction); higher = less cytotoxic; conditions: inflammatory serum-free RHB-A with cytokines + LPS; 5 d + 24 h CellTiter-Blue; compound 300 nM; GSK126 pretreatment: none (vehicle)
Please reply with the value in numeric form only.

Request: Lookup: relative viability / A549 / Cn1cc(C2=C(c3ccc(Cl)cc3Cl)C(=O)NC2=O)c2ccccc21
Result: 0.802

Request: Lookup: relative viability / A549 / C[C@@H]1CN(CC(=O)Nc2ccc3c(c2)Cc2cccc(-c4cc(=O)cc(N5CCOCC5)o4)c2S3)C[C@H](C)O1
Result: 0.943

Request: Lookup: relative viability / A549 / CCc1cccc(CC)c1NC(=O)N1Cc2[nH]nc(NC(=O)c3ccc(N4CCN(C)CC4)cc3)c2C1
Result: 0.557

Request: Lookup: relative viability / A549 / Cc1nc(Nc2ncc(C(=O)Nc3c(C)cccc3Cl)s2)cc(N2CCN(CCO)CC2)n1 [Dasatinib]
Result: 0.956
